The reported measurements were obtained from PubChem BioAssay AID1159580.

Experiment: chemical genetic growth profiling, strain panel (AID 1159580);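 also: tested at 20 µM; growth read once vehicle control cultures reached saturation at 30 °C; 1 = growth at the plate median or of vehicle wells; lower values mean less growth of the strain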
Details: S. cerevisiae deletion strains, growth OD, locus YDR297W, strain sur2, active compounds read low
Out of some 5,500 compounds screened, about 2,000 (36%) were called active. Not shown: some 18% with an inconclusive outcome. The list shows a part of the results.
# yes (1) = normalized growth below 1 (exclusive); no (0) = normalized growth at/above 1

Ask: Please let me know if CCC(CCC(C)[C@H]1CCC2C3CC=C4C[C@@H](O)CC[C@]4(C)C3CC[C@@]21C)C(C)C (stereo partly specified) shows normalized growth below 1.
Reply: no (0)

Ask: Another molecule: CC(C)c1ccc2c(c1O)CC[C@H]1C3=C(CC[C@]21C)C(=O)OC3
Reply: yes (1)

Ask: Another molecule: COC(=O)C1=C(C)NC(C)=C(C(=O)OC)C1c1ccccc1[N+](=O)[O-]
Reply: yes (1)

Ask: Another molecule: COc1ccc(-c2cc(=O)c3c(OC)c(OC)c(OC)c(OC)c3o2)cc1
Reply: yes (1)

Ask: Another molecule: COC(=O)C1=C(C)NC(C)=C(C(=O)OCC(C)C)C1c1ccccc1[N+](=O)[O-] (stereo unspecified)
Reply: yes (1)

Ask: Another molecule: CC(=O)Oc1cc(-c2coc3cc(OC(C)=O)c(OC(C)=O)c(OC(C)=O)c3c2=O)cc(OC(C)=O)c1OC(C)=O
Reply: yes (1)

* * *

Experiment: chemical genetic growth profiling, strain panel (AID 1159580)
Settings: S. cerevisiae deletion strains, growth OD, locus YDL185W, strain tfp1, active compounds read low
Hit rate of the full screen: of about 5,500 compounds, about 2,000 (36%) were called active. Inconclusive results (about 18%) are left out. The list shows a part of the results.
Provide the recorded normalized growth for the entries that follow.
Number only, please.

Ask: Can you look up the measured normalized growth of N[C@@H]1CONC1=O for me?
Reply: 1.02

Ask: Another compound: NS(=O)(=O)c1cc2c(cc1C(F)(F)F)NCNS2(=O)=O
Reply: 0.997

Ask: Another compound: Cc1cc(=O)c2c(o1)-c1c(cc(O)c(O)c1C(=O)O)OC2
Reply: 1.01

Ask: Another compound: CCCCCCCCCc1ccc(O)cc1
Reply: 0.929

Ask: Another compound: CC1NC(=O)NC1=O (stereo not given)
Reply: 1.01

Ask: Another compound: C[N+]1(CCCCC[N+]2(C)CCCC2)CCCC1
Reply: 1.01

Ask: Another compound: CCCCCCc1ccc(O)cc1O
Reply: 0.956

Ask: Another compound: NCCc1ccc(O)cc1
Reply: 1

Ask: Another compound: OC1C(O)C(O)C(O)C(O)C1O (stereo not given)
Reply: 0.966

Ask: Another compound: CC(C)[C@]12O[C@H]1[C@@H]1O[C@@]13[C@@]1(C)CCC4=C(COC4=O)[C@@H]1C[C@@H]1O[C@@]13C2=O
Reply: 1

Ask: Another compound: O=C(O)/C=C(\CC(=O)O)C(=O)O
Reply: 1

Ask: Another compound: Cc1cc2cc3c(C)cc(=O)oc3c(C)c2o1
Reply: 0.958

Ask: Another compound: C#CCOS(=O)OC1CCCCC1Oc1ccc(C(C)(C)C)cc1 (stereo not given)
Reply: 0.982

Ask: Another compound: Clc1ccc(Cl)cc1
Reply: 0.968

Ask: Another compound: CC(=O)N(O)CCCCCNC(=O)CCC(=O)N(O)CCCCCNC(=O)CCC(=O)N(O)CCCCCN
Reply: 0.967

Ask: Another compound: Nc1ccc(C(=O)O)c(O)c1
Reply: 1

Ask: Another compound: CC1(C)O[C@@H]2CC3C4C[C@H](F)C5=CC(=O)C=C[C@]5(C)[C@@]4(F)[C@@H](O)C[C@]3(C)[C@]2(C(=O)CO)O1 (stereo not given in full)
Reply: 1.01

Ask: Another compound: Cc1cc(=O)c2c(O)c3c(cc2o1)OC(C)(C)CC3
Reply: 0.938

Ask: Another compound: Cn1c(=O)c2[nH]c(C3CCCC3)nc2n(C)c1=O
Reply: 1.01

Ask: Another compound: ClC(Cl)=C(c1ccc(Cl)cc1)c1ccc(Cl)cc1
Reply: 0.964

* * *

Experiment: chemical genetic growth profiling, strain panel (AID 1159580)
Conditions: S. cerevisiae deletion strains, growth OD, locus YCL061C, strain MRC1, active compounds read low
About 2,000 (36%) of roughly 5,500 compounds were called active. About 18% were inconclusive and are not listed. The list shows a part of the results.
resultType: normalized growth
Number only, please.

Ask: Can you look up the measured normalized growth of C/C(=C\C(=O)OCCCCCCCCC(=O)O)C[C@@H]1OC[C@H](C[C@@H]2O[C@H]2[C@@H](C)[C@H](C)O)[C@@H](O)[C@H]1O for me?
Reply: 0.965

Ask: Another compound: CC(=O)Oc1c(-c2ccccc2)oc2c(CC=C(C)C)c3c(c(OC(C)=O)c2c1=O)C=CC(C)(C)O3
Reply: 1.02

Ask: Another compound: CN1CCOC(c2ccccc2)c2ccccc2C1 (centres undefined)
Reply: 0.979

Ask: Another compound: CC(=O)O[C@H]1C[C@@H](O)C(C)(C)C2C[C@@H](OC(C)=O)[C@]3(C)C(CC[C@@]4(C)[C@H](c5ccoc5)OC(=O)C5OC543)[C@]21C (some centres undefined)
Reply: 1.01

* * *

Provide the recorded normalized growth for the entries that follow.
Experiment: chemical genetic growth profiling, strain panel (AID 1159580);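 also: tested at 20 µM; growth read once vehicle control cultures reached saturation at 30 °C; 1 = growth at the plate median or of vehicle wells; lower values mean less growth of the strain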
Details: S. cerevisiae deletion strains, growth OD, locus YEL037C, strain rad23, active compounds read low
Hit rate of the full screen: of about 5,500 compounds, about 2,000 (36%) were called active. Not shown: some 18% with an inconclusive outcome. Some of the results follow.
Number only, please.

Ask: Can you look up the measured normalized growth of O=C(O)c1cn(-c2ccc(F)cc2)c2cc(N3CCNCC3)c(F)cc2c1=O for me?
Reply: 0.959

Ask: Another compound: COC(=O)C1=C(C)NC(C)=C(C(=O)OCC(C)C)C1c1ccccc1[N+](=O)[O-] (configuration not stated)
Reply: 0.296

Ask: Another compound: CC[C@]12C=CCN3CC[C@@]4(c5ccc(OC)cc5N(C)C4[C@@](O)(C(=O)OC)[C@@H]1OC(C)=O)[C@@H]32 (some centres not stated)
Reply: 1

Ask: Another compound: CCC(/C=C/[C@@H](C)[C@H]1CCC2C3CC=C4C[C@@H](O)CC[C@]4(C)C3CC[C@@]21C)C(C)C (some centres not stated)
Reply: 0.976

Ask: Another compound: CCCCOc1cc(CC2CNC(=O)N2)ccc1OC (configuration not stated)
Reply: 0.994

Ask: Another compound: COc1ccc(-c2cc(=O)c3ccccc3o2)cc1
Reply: 0.904

Ask: Another compound: CCN1CCN(c2cc3c(cc2F)c(=O)c(C(=O)O)cn3C2CC2)CC1
Reply: 1.01

* * *

Assay: chemical genetic growth profiling, strain panel (AID 1159580);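 also: tested at 20 µM; growth read once vehicle control cultures reached saturation at 30 °C; 1 = growth at the plate median or of vehicle wells; lower values mean less growth of the strain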
Conditions: S. cerevisiae deletion strains, growth OD, locus YAL030W, strain snc1, active compounds read low
Hit rate of the full screen: of about 5,500 compounds, about 2,000 (36%) were called active. About 18% were inconclusive and are not listed. Some of the results follow.
# Condition met = normalized growth below 1 (exclusive); Condition not met = normalized growth at/above 1

Ask: Please let me know if CC(C)(C)C(=O)C(Oc1ccc(Cl)cc1)n1cncn1 (stereo not drawn) shows normalized growth below 1.
Reply: Condition met

Ask: Another compound: CC(=O)[C@H]1CCC2C3CC=C4C[C@@H](O)CC[C@]4(C)C3CC[C@@]21C (stereo partly drawn)
Reply: Condition met

Ask: Another compound: N[C@H](CO)Cc1ccccc1
Reply: Condition not met

Ask: Another compound: COc1ccc(-c2cc(=O)c3ccccc3o2)cc1OC
Reply: Condition met

Ask: Another compound: O=c1cc(-c2cccc(O)c2)oc2ccc(O)cc12
Reply: Condition met

Ask: Another compound: CC(C)Oc1ccc2c(=O)cc(-c3ccccc3)oc2c1
Reply: Condition met

* * *

Assay: chemical genetic growth profiling, strain panel (AID 1159580);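 also: tested at 20 µM; growth read once vehicle control cultures reached saturation at 30 °C; 1 = growth at the plate median or of vehicle wells; lower values mean less growth of the strain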
Details: S. cerevisiae deletion strains, growth OD, locus YPL106C, strain sse1
Out of some 5,500 compounds screened, about 2,000 (36%) were called active. Roughly 18% stayed inconclusive and do not appear here. Cut-off read from the data, not from the text of the source: active = normalized growth mostly below about 0.91 (no sharp cut-off); inconclusive = no clear call, values can overlap the other calls; inactive = mostly above about 0.92. The list shows a part of the results.
// one of active, inactive, no free text

Ask: Outcome logged for CN(C)CC/C=C1/c2ccccc2COc2ccccc21 in this assay:
Reply: inactive

Ask: Another compound: CC(=O)OCC(=O)[C@H]1CCC2C3CC=C4C[C@@H](O)CC[C@]4(C)C3CC[C@@]21C (stereo partly drawn)
Reply: active

Ask: Another compound: CCCN1C[C@H](CSC)C[C@@H]2c3cccc4[nH]cc(c34)C[C@H]21
Reply: inactive

Ask: Another compound: COc1ccc(-c2cc(=O)c3c(OC(C)=O)cc(OC(C)=O)cc3o2)cc1
Reply: inactive

Ask: Another compound: CN(N=O)C(=O)N[C@@H]1[C@@H](O)[C@H](O)[C@@H](CO)O[C@@H]1O
Reply: inactive

Ask: Another compound: NCC(=O)CCC(=O)O
Reply: inactive

Ask: Another compound: CC(=O)Nc1ccc(O)cc1
Reply: inactive

Ask: Another compound: CC(=O)Oc1ccc(-c2cc(=O)c3c(OC(C)=O)cc(OC(C)=O)cc3o2)cc1
Reply: inactive

Ask: Another compound: CN(C)CCC=C1c2ccccc2CCc2ccccc21
Reply: inactive

Ask: Another compound: COc1cccc2c1cc([N+](=O)[O-])c1c(C(=O)O)cc3c(c12)OCO3
Reply: inactive

Ask: Another compound: O=c1c(-c2cc(O)c(O)c(O)c2)coc2cc(O)c(O)c(O)c12
Reply: inactive

Ask: Another compound: Nc1ccc(C(=O)O)c(O)c1
Reply: inactive

Ask: Another compound: CC(=O)Nc1cccc(O)c1
Reply: inactive
